target: HPK1 (Homo sapiens (Human), UniProt Q92918); experiment: HPK1 biochemical enzyme assay (microfluidic mobility shift assay); settings: 1.5 nM HPK1, ATP 1 mM final, 30 min preincubation, 60 min at RT, Caliper EZ Reader; read-out: HPK1 1000UMATP caliper IC50
Sequence (Q92918 whole entry): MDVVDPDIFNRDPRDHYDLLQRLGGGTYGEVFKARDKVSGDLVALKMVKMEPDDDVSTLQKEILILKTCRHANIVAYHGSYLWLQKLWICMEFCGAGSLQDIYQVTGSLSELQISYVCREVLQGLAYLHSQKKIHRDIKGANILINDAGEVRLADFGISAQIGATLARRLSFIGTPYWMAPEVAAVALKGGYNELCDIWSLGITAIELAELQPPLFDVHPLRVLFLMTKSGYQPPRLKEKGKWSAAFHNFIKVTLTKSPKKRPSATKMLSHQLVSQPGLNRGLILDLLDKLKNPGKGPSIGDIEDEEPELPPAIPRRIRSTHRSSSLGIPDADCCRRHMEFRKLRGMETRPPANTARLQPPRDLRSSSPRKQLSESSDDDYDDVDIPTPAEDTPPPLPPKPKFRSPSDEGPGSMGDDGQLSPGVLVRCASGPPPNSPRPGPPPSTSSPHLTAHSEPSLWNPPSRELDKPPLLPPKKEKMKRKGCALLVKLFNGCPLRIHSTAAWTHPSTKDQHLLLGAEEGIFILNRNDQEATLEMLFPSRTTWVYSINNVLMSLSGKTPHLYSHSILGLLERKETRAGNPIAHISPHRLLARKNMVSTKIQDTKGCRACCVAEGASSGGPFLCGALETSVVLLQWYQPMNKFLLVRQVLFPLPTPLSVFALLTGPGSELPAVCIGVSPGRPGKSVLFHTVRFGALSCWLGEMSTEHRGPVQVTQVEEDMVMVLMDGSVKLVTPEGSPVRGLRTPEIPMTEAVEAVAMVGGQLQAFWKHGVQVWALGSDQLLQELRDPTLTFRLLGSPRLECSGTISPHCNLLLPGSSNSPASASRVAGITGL
Known IC50 of a selection of compounds
readout kind: IC50

Cn1ccc2c(-c3ncc(Nc4ccc(N5CC6CCC(C5)N6)cn4)c4c3CNC4=O)ccnc21 [I-262] : < 100 nM
Cc1c(F)ccn2c(-c3ccc(Nc4ccc(N5CCC(O)CC5)cn4)c4c3CNC4=O)cnc12 [I-209] : < 100 nM
CN(C)Cc1nc(Nc2ccc(-c3cnc4cnccn34)c3c2C(=O)NC3)ccc1C1CCOCC1 [I-850] : < 100 nM
CC(C)(O)[C@@H]1CN(c2ccc(Nc3cnc(-c4cnc5ccccn45)c4c3C(=O)NC4)nc2)CCO1 [I-485] : < 100 nM
CN1CC[C@@]12CCN(c1cccc(Nc3cnc(-c4ccnc5c4ccn5C)c4c3C(=O)NC4)n1)C2 [I-616] : < 100 nM
O=C1NCc2c(-c3cnc4n3CCCC4)ccc(Nc3ccc(N4CCC(O)CC4)cn3)c21 [I-296] : 100 to 1000 nM
Cn1ccc2c(-c3ccc(-n4ccc(N5CCC(O)CC5)n4)c4c3CNC4=O)ccnc21 [I-308] : > 1000 nM
O=C1NCc2c(-c3cnc4cc(F)ccn34)ccc(Nc3ccc([C@H]4CCOC4)c(CN4CCC4)n3)c21 [I-755] : < 100 nM

The origin of these recorded values is patent US11021481B2.
